Experiment: Solubility (excess compound shaken 1 day at room temperature, HPLC)
Format: physicochemical
Conditions: aqueous buffer, thermodynamic from solid, solvent 0.0001M HCl, final pH in column pH of the same row (3.17-6.68)
READOUT KIND: solubility at 1 day (µg/mL)
The reply should contain only the number, in µg/mL.

Task item: Supply solubility at 1 day value. Item: C[C@H](OC(=O)[C@@H](N)Cc1ccccc1)[C@H](C)n1ncn(-c2ccc(N3CCN(c4ccc(OC[C@@H]5CO[C@@](Cn6cncn6)(c6ccc(F)cc6F)O5)cc4)CC3)cc2)c1=O (relative stereo) [Compound 23]
Reply: 20

* * *

Assay: Chemical stability (open glass jar, 40° C., 75% relative humidity)
Assay type: physicochemical
Details: 50 mg, after one week
READOUT KIND: Stability (amount of test compound remaining) (%)
Reply numerically in %, unit not repeated.

Task item: Answer with the recorded Stability (amount of test compound remaining) for the compound listed here: CCN(CC)CCC(=O)OC(C)C(C)n1ncn(-c2ccc(N3CCN(c4ccc(OCC5COC(Cn6cncn6)(c6ccc(F)cc6F)O5)cc4)CC3)cc2)c1=O.O.O=C(O)C=CC(=O)O (centres unmarked)
Reply: 90.4

Task item: Kindly indicate its recorded Stability (amount of test compound remaining). Item: CC(C)C(N)C(=O)OC(C)C(C)n1ncn(-c2ccc(N3CCN(c4ccc(OCC5COC(Cn6cncn6)(c6ccc(F)cc6F)O5)cc4)CC3)cc2)c1=O (centres unmarked)
Reply: 101.7

Task item: Please report Stability (amount of test compound remaining) for the following compound: C[C@H](OC(=O)CCN)[C@H](C)n1ncn(-c2ccc(N3CCN(c4ccc(OC[C@@H]5CO[C@@](Cn6cncn6)(c6ccc(F)cc6F)O5)cc4)CC3)cc2)c1=O.O.O=C(O)C[C@H](O)C(=O)O.O=C(O)C[C@H](O)C(=O)O (relative stereo)
Reply: 96.1

Task item: Give reported Stability (amount of test compound remaining) value for C[C@H](OC(=O)[C@@H](N)Cc1ccccc1)[C@H](C)n1ncn(-c2ccc(N3CCN(c4ccc(OC[C@@H]5CO[C@@](Cn6cncn6)(c6ccc(F)cc6F)O5)cc4)CC3)cc2)c1=O (relative stereo)
Reply: 99.7

Task item: Give the reported value of Stability (amount of test compound remaining) for this record: CC(N)C(=O)OC(C)C(C)n1ncn(-c2ccc(N3CCN(c4ccc(OCC5COC(Cn6cncn6)(c6ccc(F)cc6F)O5)cc4)CC3)cc2)c1=O.O.O=C(O)CCC(=O)O (centres unmarked)
Reply: 31.0

Task item: Provide one value: measured Stability (amount of test compound remaining) of CCN(CC)CC(=O)OC(C)C(C)n1ncn(-c2ccc(N3CCN(c4ccc(OCC5COC(Cn6cncn6)(c6ccc(F)cc6F)O5)cc4)CC3)cc2)c1=O.O=C(O)C=CC(=O)O (centres unmarked)
Reply: 100.3

Task item: Give the value of Stability (amount of test compound remaining) reported for the following: CC(OC(=O)CCN)C(C)n1ncn(-c2ccc(N3CCN(c4ccc(OCC5COC(Cn6cncn6)(c6ccc(F)cc6F)O5)cc4)CC3)cc2)c1=O.O.O=C(O)C(=O)O (centres unmarked)
Reply: 98.3

Task item: State, in one line, measured Stability (amount of test compound remaining) of CC(C)CC(N)C(=O)OC(C)C(C)n1ncn(-c2ccc(N3CCN(c4ccc(OCC5COC(Cn6cncn6)(c6ccc(F)cc6F)O5)cc4)CC3)cc2)c1=O (centres unmarked)
Reply: 100.3

Origin of the recorded values: patent US6703506B2
